Where these numbers come from: ChEMBL document CHEMBL4033750

Catalogue of inhibition values
target: Phosphatidylcholine:ceramide cholinephosphotransferase 1 (Homo sapiens); test: Inhibition of purified SMS1 (unknown origin) at 20 umol/L pre-incubated for 5 mins followed by DMPC and C6-NBD-ceramide addition and measured after 30 mins by HPLC method
A number alone suffices; assume %.

In the examples that follow, each entry is paired with its recorded inhibition.
**Query** Sample `c1ccc(COc2ccccc2-c2nc3cccnc3o2)nc1` — what was its inhibition?
**Result** 12.1

**Query** Give its inhibition value. Item: `Fc1ccccc1COc1ccccc1-c1nc2cccnc2o1`
**Result** 0

Next:
**Query** What value of measured inhibition is listed for `COc1ccccc1COc1ccccc1-c1nc2cccnc2o1` ?
**Result** -6.3

* * *

Entries and their inhibition values follow.
molecular target: Phosphatidylcholine:ceramide cholinephosphotransferase 1 (Homo sapiens) (UniProt Q86VZ5); assay: Inhibition of purified SMS1 (unknown origin) at 20 umol/L pre-incubated for 5 mins followed by DMPC and C6-NBD-ceramide addition and measured after 30 mins by HPLC method
// return numeric value only (unit: %, not printed)

Some entries whose results are on file:
**Query** # lookup: inhibition of `Cc1c(F)cccc1COc1ccccc1-c1nc2cccnc2o1`
**Result** 7.4

**Query** Would you kindly share the measured inhibition for `Cc1ccc(COc2ccccc2-c2nc3cccnc3o2)cc1` ?
**Result** -1.1

**Query** May I ask what inhibition has been recorded for `Clc1ccccc1COc1ccccc1-c1nc2cccnc2o1` ?
**Result** 1.6

**Query** Reported inhibition, compound `Clc1cccc(COc2ccccc2-c2nc3cccnc3o2)c1` : ____
**Result** -0.5

**Query** If you can, please state the reported inhibition value of `Cc1ccc(F)cc1COc1ccccc1-c1nc2cccnc2o1` .
**Result** -7.7

// next item, inhibition requested
**Query** State the recorded inhibition for this entry: `CCc1ccccc1COc1ccccc1-c1nc2cccnc2o1`
**Result** -1.8

* * *

Listing of recorded inhibition by entry.
target: Phosphatidylcholine:ceramide cholinephosphotransferase 1 (Homo sapiens); experiment: Inhibition of purified SMS1 (unknown origin) at 100 umol/L pre-incubated for 5 mins followed by DMPC and C6-NBD-ceramide addition and measured after 30 mins by HPLC method
Quick note: give the figure in %, leave out the unit.

Previously resolved entries follow.
**Query** Report inhibition for `Clc1ccccc1COc1ccccc1-c1nc2cccnc2o1` tested on Phosphatidylcholine:ceramide cholinephosphotransferase 1 (Homo sapiens).
**Result** 54

**Query** Test system Phosphatidylcholine:ceramide cholinephosphotransferase 1 (Homo sapiens); read-out inhibition; what value for `c1ccc(COc2ccccc2-c2nc3cccnc3o2)cc1` ?
**Result** 58

**Query** For Phosphatidylcholine:ceramide cholinephosphotransferase 1 (Homo sapiens), provide inhibition of `Fc1cccc(COc2ccccc2-c2nc3cccnc3o2)c1` please.
**Result** 12

**Query** Give inhibition (Phosphatidylcholine:ceramide cholinephosphotransferase 1 (Homo sapiens)) of the following compound: N#CC(Nc1ccccc1)c1ccccc1OCc1ccccc1 (configuration not stated)
**Result** 57

**Query** Record `N#Cc1cccc(COc2ccccc2-c2nc3cccnc3o2)c1` : what is its inhibition with Phosphatidylcholine:ceramide cholinephosphotransferase 1 (Homo sapiens)?
**Result** 22

Here is the next item to consider.
**Query** Hello, I am looking for reported inhibition with Phosphatidylcholine:ceramide cholinephosphotransferase 1 (Homo sapiens) for `Cc1ccccc1COc1ccccc1-c1nc2cccnc2o1` . Could you help?
**Result** 32

* * *

Measured inhibition, listed per entry.
Molecular target: Phosphatidylcholine:ceramide cholinephosphotransferase 1 (Homo sapiens) (UniProt Q86VZ5)
Sequence (whole entry): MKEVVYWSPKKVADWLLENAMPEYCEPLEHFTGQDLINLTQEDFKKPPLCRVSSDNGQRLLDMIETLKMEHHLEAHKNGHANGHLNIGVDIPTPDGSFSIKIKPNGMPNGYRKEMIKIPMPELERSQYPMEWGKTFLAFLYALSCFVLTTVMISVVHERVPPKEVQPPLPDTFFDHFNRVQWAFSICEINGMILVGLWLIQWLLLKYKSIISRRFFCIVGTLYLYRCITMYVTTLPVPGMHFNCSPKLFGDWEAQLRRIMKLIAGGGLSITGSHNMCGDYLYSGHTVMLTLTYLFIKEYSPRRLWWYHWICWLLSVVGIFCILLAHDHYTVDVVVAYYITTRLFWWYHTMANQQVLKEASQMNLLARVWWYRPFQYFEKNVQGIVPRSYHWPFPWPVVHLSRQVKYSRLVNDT
Assay: Inhibition of purified SMS1 (unknown origin) at 100 umol/L pre-incubated for 5 mins followed by DMPC and C6-NBD-ceramide addition and measured after 30 mins by HPLC method
Quick reminder: number only, in %, skip the unit.

Consider the following illustrative entries.
**Query** If you can, please state the reported inhibition value of `Cc1cccc(C)c1COc1ccccc1-c1nc2cccnc2o1` .
**Result** 53

**Query** Suppose we examine the compound `Fc1cc(F)cc(COc2ccccc2-c2nc3cccnc3o2)c1` ; what inhibition value has been reported?
**Result** 13

**Query** Return reported inhibition; argument: `COc1ccccc1COc1ccccc1-c1nc2cccnc2o1`
**Result** 62

**Query** Which inhibition reading was recorded for the compound `FC(F)(F)Oc1ccccc1COc1ccccc1-c1nc2cccnc2o1` ?
**Result** 59

**Query** // inhibition lookup, key: `Cc1c(F)cccc1COc1ccccc1-c1nc2cccnc2o1`
**Result** 11

**Query** What value of measured inhibition is listed for `Cc1cccc(COc2ccccc2-c2nc3cccnc3o2)c1` ?
**Result** 55

Others:
**Query** inhibition lookup needed for `CCc1ccccc1COc1ccccc1-c1nc2cccnc2o1` , thanks.
**Result** 61
